Please go through the items and note down their Average EC50, pSTAT5 Assay in NK cells.
test-system: T1, IL-2 receptor βγ complex (human, UniProt P14784 27-551; P31785 23-369)
T1 sequence (looked up) 1: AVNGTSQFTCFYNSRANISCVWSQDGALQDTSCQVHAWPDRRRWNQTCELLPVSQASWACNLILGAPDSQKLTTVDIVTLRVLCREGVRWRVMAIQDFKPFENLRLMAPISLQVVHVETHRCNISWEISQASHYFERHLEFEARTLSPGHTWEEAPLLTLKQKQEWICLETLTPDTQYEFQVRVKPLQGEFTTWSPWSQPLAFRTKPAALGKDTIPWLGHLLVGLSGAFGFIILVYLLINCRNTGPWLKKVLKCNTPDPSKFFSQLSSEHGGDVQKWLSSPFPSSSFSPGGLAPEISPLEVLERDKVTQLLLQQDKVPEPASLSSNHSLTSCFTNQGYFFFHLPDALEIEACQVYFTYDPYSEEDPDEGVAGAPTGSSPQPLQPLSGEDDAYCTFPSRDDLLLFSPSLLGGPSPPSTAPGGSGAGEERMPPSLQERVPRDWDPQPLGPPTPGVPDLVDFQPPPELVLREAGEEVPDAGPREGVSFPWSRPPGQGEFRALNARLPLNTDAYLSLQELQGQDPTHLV
T1 sequence (looked up) 2: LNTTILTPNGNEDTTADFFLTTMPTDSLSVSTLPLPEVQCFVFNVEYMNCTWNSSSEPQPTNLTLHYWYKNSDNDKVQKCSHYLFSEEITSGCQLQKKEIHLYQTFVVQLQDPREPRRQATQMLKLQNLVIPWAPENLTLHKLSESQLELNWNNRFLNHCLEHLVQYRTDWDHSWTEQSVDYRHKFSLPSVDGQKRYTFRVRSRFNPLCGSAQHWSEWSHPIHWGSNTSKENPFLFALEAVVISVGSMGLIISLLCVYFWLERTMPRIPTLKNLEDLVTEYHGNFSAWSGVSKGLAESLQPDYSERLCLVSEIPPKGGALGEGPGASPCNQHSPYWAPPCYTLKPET
test-method-notes: cell-based or functional assay
Bridges are numbered along the chain shown (N, C = ends). Primed or numbered codes have the meaning given here. Side-chain parts run from the residue outwards. [ ]: non-standard residue; d: D form. 8x polyethylene glycol‑amino = O-(8x polyethylene glycol-amino)-tyrosine, SITE 45; 9x polyethylene glycol‑azido = O-(9x polyethylene glycol-azido)-tyrosine, SITE 42; Ygp(8) = Tyr, amino-capped PEG8 (O-(8x polyethylene glycol-amino)-tyrosine); Yn3(8) = Tyr, azide-capped PEG9 (O-(9x polyethylene glycol-azido)-tyrosine); Ygp = O-(8x polyethylene glycol-amino)-tyrosine (Tyr, amino-capped PEG8); Yn3 = O-(9x polyethylene glycol-azido)-tyrosine (Tyr, azide-capped PEG9); Ygp″ = O-(8x polyethylene glycol-amino)-tyrosine; Yn3″ = O-(9x polyethylene glycol-azido)-tyrosine; PEG4′ = 4x polyethylene glycol; hSer = N[C@@H](CCO)C(=O)O; Nle = CCCC[C@H](N)C(=O)O
Give bare numbers, in nM.

Below: 8 binders and their reported Average EC50, pSTAT5 Assay in NK cells.
binder	measured-quantity	unit-abbreviation	observed-result
CMP-138 (ligand, bridge (positions not given here); not fully specified (bridges); ends not checked) [PEG4′]SGGPGPAGMKGLPGS[PEG4′]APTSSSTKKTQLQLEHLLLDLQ[Nle]ILNGIENYKNPKLTR[Nle]L[hSer][Yn3]KF[Ygp][Nle]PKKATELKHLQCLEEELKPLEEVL[hSer]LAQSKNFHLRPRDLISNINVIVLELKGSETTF[hSer]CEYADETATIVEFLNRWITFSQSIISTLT	Average EC50, pSTAT5 Assay in NK cells	nM	1.88
CMP-321 (ligand, lactam N-32) SGRVQPLVDAPTSSSTKKTQLQLEHLLLDLQEILNGINNYKNPKLTR[Nle]L[hSer][Yn3(8)]KF[Ygp(8)][Nle]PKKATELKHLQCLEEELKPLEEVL[hSer]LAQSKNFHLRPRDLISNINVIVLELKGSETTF[hSer]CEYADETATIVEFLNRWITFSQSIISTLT	Average EC50, pSTAT5 Assay in NK cells	nM	55.1
CMP-329 (ligand, bridge 9-23; not fully specified (bridges); ends not checked) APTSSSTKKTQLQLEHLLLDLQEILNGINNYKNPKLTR[Nle]L[hSer][Yn3″]KF[Ygp″][Nle]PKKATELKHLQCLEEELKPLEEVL[hSer]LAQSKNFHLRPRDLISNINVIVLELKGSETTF[hSer]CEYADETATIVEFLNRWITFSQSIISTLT	Average EC50, pSTAT5 Assay in NK cells	nM	20.6
CMP-326 (ligand, bridge 9-23; not fully specified (bridges); ends not checked; also: further groups not given here) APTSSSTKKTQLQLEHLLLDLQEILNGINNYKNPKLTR[Nle]L[hSer][Yn3″]KF[Ygp″][Nle]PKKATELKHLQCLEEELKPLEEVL[hSer]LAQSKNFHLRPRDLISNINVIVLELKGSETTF[hSer]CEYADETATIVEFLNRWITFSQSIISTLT	Average EC50, pSTAT5 Assay in NK cells	nM	15.5
CMP-325 (ligand, not fully specified; ends and bridges not checked) RVANLVGAPTSSSTKKTQLQLEHLLLDLQE([Arg-Gly-Arg])ILNGINNYKNPKLTR[Nle]L[hSer][Yn3″]KF[Ygp″][Nle]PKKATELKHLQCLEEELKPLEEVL[hSer]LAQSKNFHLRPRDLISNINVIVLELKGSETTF[hSer]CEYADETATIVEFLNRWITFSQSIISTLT	Average EC50, pSTAT5 Assay in NK cells	nM	0.18
CMP-310, Matriptase cleaved molecule (ligand, also: m73 after matriptase cleavage: Lys23 side-chain branch (cleavable peptide) cut, remnant not given here) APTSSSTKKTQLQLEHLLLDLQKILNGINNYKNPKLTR[Nle]L[hSer][Yn3]KF[Ygp][Nle]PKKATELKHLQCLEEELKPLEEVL[hSer]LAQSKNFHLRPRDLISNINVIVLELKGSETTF[hSer]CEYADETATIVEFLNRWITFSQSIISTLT	Average EC50, pSTAT5 Assay in NK cells	nM	6.9
CMP-316, Matriptase cleaved molecule (ligand, also: matriptase cleavage product, not given here as a sequence, Lys23 side-chain attachment remnant unknown) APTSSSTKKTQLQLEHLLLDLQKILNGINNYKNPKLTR[Nle]L[hSer]Y(9x polyethylene glycol‑azido)KFY(8x polyethylene glycol‑amino)[Nle]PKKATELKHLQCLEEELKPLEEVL[hSer]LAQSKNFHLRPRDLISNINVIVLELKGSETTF[hSer]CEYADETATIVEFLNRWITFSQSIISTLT	Average EC50, pSTAT5 Assay in NK cells	nM	0.617
CMP-310, uPa cleaved molecule (ligand, also: m73 after uPa cleavage: Lys23 side-chain branch (cleavable peptide) cut, remnant not given here) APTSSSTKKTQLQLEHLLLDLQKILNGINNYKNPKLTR[Nle]L[hSer][Yn3]KF[Ygp][Nle]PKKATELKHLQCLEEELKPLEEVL[hSer]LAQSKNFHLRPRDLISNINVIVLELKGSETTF[hSer]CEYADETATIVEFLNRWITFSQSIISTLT	Average EC50, pSTAT5 Assay in NK cells	nM	6.79

Now look at this one.
Answer with the recorded Average EC50, pSTAT5 Assay in NK cells for the binder listed here: CMP-328, MMP2 cleaved molecule (ligand, ends and bridges not checked; also: after MMP2 cleavage, remnants of the Lys9–Glu23 peptide linker not given here) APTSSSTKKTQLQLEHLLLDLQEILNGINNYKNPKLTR[Nle]L[hSer][Yn3″]KF[Ygp″][Nle]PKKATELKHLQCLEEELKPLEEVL[hSer]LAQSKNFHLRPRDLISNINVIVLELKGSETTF[hSer]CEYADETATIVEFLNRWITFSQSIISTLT
1.48
